- target.or.test.system: human VR1 (Homo sapiens)
- Sequence (Q8NER1 whole entry): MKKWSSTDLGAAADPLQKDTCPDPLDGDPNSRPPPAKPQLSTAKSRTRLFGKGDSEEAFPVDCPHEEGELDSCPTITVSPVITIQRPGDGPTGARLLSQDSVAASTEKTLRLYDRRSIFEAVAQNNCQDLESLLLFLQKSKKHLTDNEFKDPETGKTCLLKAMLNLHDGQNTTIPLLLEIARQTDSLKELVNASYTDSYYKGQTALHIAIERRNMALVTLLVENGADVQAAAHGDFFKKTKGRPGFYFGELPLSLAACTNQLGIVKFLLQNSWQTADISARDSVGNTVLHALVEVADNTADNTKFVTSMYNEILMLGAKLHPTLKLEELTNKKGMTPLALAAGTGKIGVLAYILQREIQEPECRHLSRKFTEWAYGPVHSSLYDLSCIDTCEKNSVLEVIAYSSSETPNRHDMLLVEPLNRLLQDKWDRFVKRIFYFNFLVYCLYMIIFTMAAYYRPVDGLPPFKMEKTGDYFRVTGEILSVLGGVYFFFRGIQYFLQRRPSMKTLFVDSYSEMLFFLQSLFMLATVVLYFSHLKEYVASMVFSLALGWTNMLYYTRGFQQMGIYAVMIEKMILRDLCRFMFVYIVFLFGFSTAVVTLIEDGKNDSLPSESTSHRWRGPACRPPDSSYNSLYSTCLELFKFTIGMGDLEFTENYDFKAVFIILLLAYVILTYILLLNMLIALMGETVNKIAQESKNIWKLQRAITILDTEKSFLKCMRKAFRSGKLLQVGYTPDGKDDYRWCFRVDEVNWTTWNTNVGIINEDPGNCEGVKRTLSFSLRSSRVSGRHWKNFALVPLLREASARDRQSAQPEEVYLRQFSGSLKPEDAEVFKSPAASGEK
- method: Human VR1 antagonist assay (Ca2+ imaging assay using human VR1 highly expressing cells)
- condition.details: intracellular Ca2+ imaging (fura-2)
Mark met for IC50 under 60 nM, not met if at or over.

Check if IC50 falls below 60 nM for CCC(NC(=O)c1ccc2cc(C(C)(C)C)ccc2c1)c1cnn(C)c1C (centres unmarked) . met

Check if IC50 falls below 60 nM for Cc1c([C@@H](C)NC(=O)c2ccc3cc(C(C)(O)C(F)(F)F)ccc3c2)cnn1C (mixture of isomers) . not met

Check if IC50 falls below 60 nM for "Cn1cc(CNC(=O)c2ccc3cc(C(C)(C)C)ccc3c2)cn1" . not met

Check if IC50 falls below 60 nM for "C[C@@H](NC(=O)c1ccc2nc(C(C)(C)C(F)(F)F)ccc2c1)c1cnn(C)c1C#N" . not met

Check if IC50 falls below 60 nM for "Cc1c([C@@H](C)NC(=O)c2ccc3cc(C4(C)CC4)ccc3c2)cnn1C" . met

Check if IC50 falls below 60 nM for CC[C@@H](NC(=O)c1ccc2nc(C(C)(C)C(F)(F)F)ccc2c1)c1cnn(C)c1C (single isomer, unassigned) . not met

Check if IC50 falls below 60 nM for "Cc1c([C@@H](C)NC(=O)c2ccc3nc(C(C)(C)C(F)(F)F)ccc3c2)cnn1C" . met

Check if IC50 falls below 60 nM for Cc1c([C@@H](C)NC(=O)c2ccc3nc(C(C)(O)C(F)(F)F)ccc3c2)cnn1C (some centres unmarked) . not met
